Where do the numbers come from? From patent US20240317871A1.

Target: T1, murine HVEM (murine, UniProt Q80WM9 39-206, limits assumed); also: test concentration or dose not given here
T1 construct: also called Mouse
T1 sequence (looked up): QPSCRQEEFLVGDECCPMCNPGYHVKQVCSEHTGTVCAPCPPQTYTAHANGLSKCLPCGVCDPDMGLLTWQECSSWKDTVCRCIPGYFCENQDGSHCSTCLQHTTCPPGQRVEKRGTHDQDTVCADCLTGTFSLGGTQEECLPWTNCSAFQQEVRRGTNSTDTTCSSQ
Experiment: ELISA
# ELISA signal values compiled below
Quantity measured: ELISA signal

>>> data_value("Ab_052 (H5S19-18A17B) (antibody, V domains shown, also called Ab_52) VH: QVQLKESGPGLVAPSQSLSITCTVSGFSLTIYGVHWVRQPPGKGLEWLGVIWAGGIINYNSALMSRLSISKDNSKSQVFLKMNSLQSDDTAMYYCARDWERDSSGPFAYWGQGTLVTVSA VL: DIQMTQTTSSLSASLGDRVTISCSASQGISNYLNWYQQKPDGTVKLLIYYTSSLHSGVPSRFRGSGSGTDYSLTISNLEPEDIATYYCQQYSKLPWTFGGGTKLEIK")
0.042
>>> data_value("Ab_032 (H5S15-7A8A) (antibody, V domains shown, also called Ab_32) VH: QIQLVQSGPELKKPGETVKISCKASGYTFTNYGMNWVKQAPGKGLKWVGWINTYTGEPTYAEDFKGRFAFSLETSASTAYLQINNLKNEDMATYFCARSFYGSEAYWGQGTLVTVSA VL: QIVLTQSPAIMSASLGEEITLTCSASSSVSFMHWYQQKSGTSPKLLIYSTSNLASGVPSRFSGSGSGTFYSLTISSVEAEDAADYYCHQWSSYLWTFGGGAKLEIK")
0.045
>>> data_value("Ab_003 (H5S14-3A3A) (antibody, V domains shown, also called Ab_3) VH: QIQLVQSGPELKKPGETVKISCKASGYTFTNYGVNWVKQAPGKDLKWMGWINTYTGEPTYADDFKGRFAFSLETSASTAYLQINNLKNEDMATYFCTSRSWVLWGQGTLVTVSA VL: QIVLTQSPAIMSASLGEEITLTCSASSSVSYMQWYQQKSGTSPKLLIYSTSNLASGVPSRFSGSGSGTFYSLTISSVEAEDAADYYCHQWSSYPTFGGGTELEI")
0.051
>>> data_value("Ab_074 (H5S20-52A21A) (antibody, V domains shown, also called Ab_74) VH: EVQLQQSGAELVKPGASVKLSCTASGFNIKDTYIHWLNQRPEQGLEWIGRIDPANGKTKFAPKFQDKATITADTSSNTAYLQLSSLTSEDTAVYYCAGYGNSPWFAYWGQGTLVTVSA VL: DVLMTQTPLSLPVSLGDQASISCRSSQSIVHSNGNTYLEWYLQKPGQSPKLLIYKVSNRVSGVPDRFSGSGSGTDFTLKISRVEAEDLGVYYCFQGSHVPLTFGAGTKLELK")
0.044
>>> data_value("Ab_039 (H5S15-21A19A) (antibody, V domains shown, also called Ab_39) VH: QIQLVQSGPDLKKPGETVKISCKASGYTFTNYGMNWVKQAPGKDLKWMGWINTYTGEPTYADDFKGRFAFSLETSASTAYLQINNLKNDDTATYFCARSINYDSDEKWGQGTSVTVSS VL: QIVLTQSPAIMSASLGERVTLTCTASSSVSSSYLHWYQQKPGSSPKLWIYDTSNLASGVPARFSGSGSGTSYSLTISSMEAEDAATYYCHQYHRSQWTFGGGTKLEIK")
0.042
